Experiment: AUClast in male ICR-CD1 mouse liver at 80 mg/kg, po
Type: ADME, organism-based
QUANTITY NAME: AUC(0-t) (µg·h/mL)
Record the value in µg·h/mL, omitting the unit from your answer.

Record request: AUC(0-t) value, item "O=c1c2cc(F)c(Oc3ccc(OC(F)(F)F)cc3)cc2[nH]c2cc(Cl)cc(F)c12"
40

---

Test: Selectivity index, ratio of CC50 for Macaca mulatta hepatocytes to IC50 for antiplasmodial activity against schizont Plasmodium cynomolgi B strain infected in Macaca mulatta hepatocytes incubated with sporozoite containing salivary gland homogenate obtained from dissected Anopheles dirus mosquitoes (infected with Plasmodium cynomolgi B strain) treatment started on day 4 post infection and continued daily for 4 days into fresh changed media until day 8 assessed as Liver stage (LS) activity by measuring radical cure mode by immunofluorescent staining analysis
Type: toxicity, cell-based
Conditions: rhesus monkey, read-out: Selectivity Index
QUANTITY NAME: selectivity ratio at 96 h
When you answer, write just the number.

Record request: selectivity ratio at 96 h value, item CC(C)(C)OC(=O)N1CCC(Oc2ccc3c(=O)c4c(F)cc(Cl)cc4[nH]c3c2)C1 (configuration not stated)
12.8

Record request: selectivity ratio at 96 h value, item "COc1ccc(Oc2ccc3c(=O)c4c(F)cc(Cl)cc4[nH]c3c2)cc1"
11.5

Record request: selectivity ratio at 96 h value, item "O=c1c2ccc(OCc3ccc(C(F)(F)F)cc3)cc2[nH]c2cc(Cl)cc(F)c12"
2.63

Record request: selectivity ratio at 96 h value, item "CO[C@@H]1[C@@H](OC)[C@H](C)[C@@](O)(CC(=O)O)O[C@H]1[C@H](C)[C@H]1O[C@@]2(CC[C@@](C)([C@H]3CC[C@@](C)([C@@H]4O[C@@H]([C@H]5O[C@](C)(O)[C@H](C)C[C@@H]5C)C[C@@H]4O[C@@H]4C[C@H](OC)[C@@H](OC)[C@H](C)O4)O3)O2)C[C@H](O)[C@H]1C"
59
